// TGI lookup, one value per entry
System: EKVX NSCLC
Test: NCI tumour cell line growth inhibition, 48 h

q: Indicate its recorded TGI; the molecule in question is CC(=O)[CH-]C(=O)c1ccccc1.CC(=O)[CH-]C(=O)c1ccccc1.[Eu+3].[OH-].[OH3+]
a: > 100 µM

q: Indicate its recorded TGI; the molecule in question is CC(=O)[CH-]C(=O)c1ccccc1.CC(=O)[CH-]C(=O)c1ccccc1.CC1(C)C2CCC1(C)C([O-])C2.CC1(C)C2CCC1(C)C([O-])C2.[Ti+4]
a: > 100 µM

q: Indicate its recorded TGI; the molecule in question is O=C(O)CN1CCN2CCOCCOCCN(CC1)CCN(CC(=O)O)CC2
a: > 100 µM

----------
// TGI lookup, one value per entry
Test system: M14 melanoma
Test: NCI tumour cell line growth inhibition, 48 h

Take a look at these entries with their results.
molecule=CC(=O)[CH-]C(=O)c1ccccc1.CC(=O)[CH-]C(=O)c1ccccc1.CC1(C)C2CCC1(C)C([O-])C2.CC1(C)C2CCC1(C)C([O-])C2.[Ti+4] tested_target="M14 melanoma" measured="44.1 µM"
molecule=O=C1C(Cl)=C(Nc2cccc(Cl)c2)C(=O)N1Cc1ccccc1Cl tested_target="M14 melanoma" measured="19.4 µM"
molecule=O/C(=C\c1nc2ccccc2nc1/C=C(\O)c1ccc(Cl)cc1)c1ccccc1 tested_target="M14 melanoma" measured="> 100 µM"
molecule="CC(OC(C)(C)C)[C@H](NC(=O)OC(C)(C)C)C(=O)O (some centres not stated)" tested_target="M14 melanoma" measured="> 100 µM"
molecule=Oc1cc(O)c2c(-c3c(O)c(-c4ccc(O)c(O)c4)[o+]c4cc(O)cc(O)c34)c(O)c(-c3ccc(O)c(O)c3)[o+]c2c1 tested_target="M14 melanoma" measured="> 100 µM"
molecule="CCCCCC/C=C1\\CCC(CN2CCCC2)C1=O (configuration not stated)" tested_target="M14 melanoma" measured="33.6 µM"
molecule=Nc1c(Br)cc(Br)c2c1[nH]c(=O)c1ccccc12 tested_target="M14 melanoma" measured="> 100 µM"
molecule=CC(C)c1cc(CN(C)C)c(O)c(C(C)(C)C)c1 tested_target="M14 melanoma" measured="78.5 µM"

q: Indicate its recorded TGI; the molecule in question is O=C1C(N2CCNCC2)=C(Cl)C(=O)c2ncccc21
a: > 10 µM

q: Indicate its recorded TGI; the molecule in question is COc1ccc(/C=C\c2cc(OC)c(OC)c(OC)c2)cc1OC(=O)c1cccc(Cn2cc(CCOC(=O)[C@H](N)Cc3cn(C)c4ccccc34)nn2)c1
a: 16.9 µM

q: Indicate its recorded TGI; the molecule in question is C=CCN1C(=O)/C(=C/c2ccc(OC)cc2)NC1=S
a: > 100 µM

q: Indicate its recorded TGI; the molecule in question is C#CCC(Cc1cnc2nc(N)nc(N)c2n1)c1ccc(C(=O)N[C@@H](CCC(=O)O)C(=O)O)cc1 (some centres not stated)
a: > 100 µM

q: Indicate its recorded TGI; the molecule in question is COc1ccc2c(=O)c3ccoc3n(CC=C(C)C)c2c1
a: > 100 µM

q: Indicate its recorded TGI; the molecule in question is Nc1c2c(=O)[nH]c(=O)c2c(N)c2c(=O)c3ccccc3c(=O)c12
a: 0.88 µM

q: Indicate its recorded TGI; the molecule in question is C=CC(c1ccccc1)[C@@]1(OC(C)=O)C(=O)C(=O)OC1C1COC(C)(C)O1 (some centres not stated)
a: 25.5 µM

q: Indicate its recorded TGI; the molecule in question is CCOC(=O)C(/C=N\C(=S)Nc1ccc(Cl)c(Cl)c1)=C(/O)c1ccccc1
a: > 100 µM

q: Indicate its recorded TGI; the molecule in question is O=C(NC(CS)C(=O)O)c1cccc2c(=O)c3ccccc3[nH]c12 (configuration not stated)
a: > 100 µM

q: Indicate its recorded TGI; the molecule in question is COc1cc(/C=C(\C#N)C(=O)c2ccccc2)ccc1O
a: > 100 µM

q: Indicate its recorded TGI; the molecule in question is O=[N+]([O-])c1nccn1CC(O)CN1CC1 (configuration not stated)
a: > 100 µM

q: Indicate its recorded TGI; the molecule in question is O=c1c2ccccc2n(C[C@H]2CO2)c2ccccc12
a: 3.9 µM

----------
Tested on: TK-10 renal
Assay: NCI tumour cell line growth inhibition, 48 h
// TGI lookup, one value per entry

Take a look at these entries with their results.
compound=c1ccc(N=C(Nc2ccccc2)N2CCCCC2)cc1 tested_target="TK-10 renal" measured="> 100 µM"
compound=C/C(=N\Nc1cc(C)c2cc(C)ccc2n1)c1ccccn1 tested_target="TK-10 renal" measured="2.82 µM"

q: Indicate its recorded TGI; the compound in question is C=C(C)C1Cc2c(cc(O)c3c(=O)c4c(oc23)C(O)Oc2cc(OC)c(OC)cc2-4)O1 (stereo not given)
a: > 10 µM

q: Indicate its recorded TGI; the compound in question is O=C1CCC(=O)N1Cc1ccccc1N=[N+]([O-])c1ccccc1CN1C(=O)CCC1=O
a: > 100 µM

q: Indicate its recorded TGI; the compound in question is O=C1NC(=O)C2C(=O)NC(=O)C1C2(c1ccccc1)c1cc[nH]c1 (stereo not given)
a: > 100 µM

----------
Tested on: 786-0 renal
Assay: NCI tumour cell line growth inhibition, 48 h
outcome.measure: TGI

Take a look at these entries with their results.
compound="Clc1ccc2c(c1)C1C(CO2)C(c2ccccc2)=NN1c1ccccc1 (stereo unspecified)" outcome_measure=TGI measured="> 100 µM"
compound=Cc1ccc2ccccc2c1NC1=NCCO1 outcome_measure=TGI measured="> 100 µM"
compound=COC(=O)Nc1nc2cc(OC)c(OC)cc2c(=O)[nH]1 outcome_measure=TGI measured="> 100 µM"
compound="COC1CC(OC2C(C)OC(OC3C(C)OC(OC4C(O)CC(O[C@H]5CC[C@@]6(C)C(=CC[C@]7(O)[C@@H]6C[C@@H](OC(=O)/C=C/c6ccccc6)[C@@]6(C)[C@]7(O)CC[C@@]6(O)C(C)=O)C5)OC4C)CC3OC)CC2OC)OC(C)C1O (stereo partly specified)" outcome_measure=TGI measured="> 6.25 µM"
compound="COC(=O)c1ccccc1C1CN=NC12Cc1ccc(C)c(C)c1C2=O (stereo unspecified)" outcome_measure=TGI measured="> 100 µM"
compound=Clc1cc(Cc2cc(Cl)c(Cl)c3c2OCOC3)c2c(c1Cl)COCO2 outcome_measure=TGI measured="62.4 µM"

q: Indicate its recorded TGI; the compound in question is C#CCC(Cc1cnc2nc(N)nc(N)c2n1)c1ccc(C(=O)N[C@@H](CCC(=O)O)C(=O)O)cc1 (stereo partly specified)
a: > 100 µM

q: Indicate its recorded TGI; the compound in question is O=c1ccn(C2OC(CO/N=C/c3ccc(O)c(O)c3O)C(O)C2O)c(=O)[nH]1 (stereo unspecified)
a: > 100 µM

q: Indicate its recorded TGI; the compound in question is COC(=O)c1ccccc1CC1Cc2ccc3c(c2C1)CCC3 (stereo unspecified)
a: > 100 µM

q: Indicate its recorded TGI; the compound in question is c1cc(Sc2nc(Sc3ccncc3)nc(Sc3ccncc3)n2)ccn1
a: > 100 µM

q: Indicate its recorded TGI; the compound in question is COc1ccc2nc3ccc(OC)cc3c(SCc3ccc([N+](=O)[O-])cc3)c2c1
a: > 100 µM

q: Indicate its recorded TGI; the compound in question is Cc1ccc(C)n1-n1c(Cc2ccccc2)n[nH]c1=O
a: > 100 µM

----------
Test system: RPMI-8226 leukemia
Test: NCI tumour cell line growth inhibition, 48 h
// TGI lookup, one value per entry

Take a look at these entries with their results.
compound=COc1ccc(/C=C/C(=O)c2ccc(SC)cc2)cc1OC outcome_measure=TGI measured="21.2 µM"
compound=Cc1ccc(NC(=O)CSc2nc(C)nc3c2sc(=S)n3-c2ccccc2)cc1 outcome_measure=TGI measured="> 10 µM"
compound=N#Cc1c(NN)nc(NN)c(C#N)c1-c1ccccc1 outcome_measure=TGI measured="> 100 µM"
compound=COc1ccc2c(=O)c3ccoc3n(CC=C(C)C)c2c1 outcome_measure=TGI measured="> 100 µM"
compound="COC(=O)C(=O)OC1(C(C)=O)CC2(c3ccccc3)OC1(c1ccccc1)c1ccccc12 (stereo unspecified)" outcome_measure=TGI measured="> 100 µM"
compound="C=CC(c1ccccc1)[C@@]1(OC(C)=O)C(=O)C(=O)OC1C1COC(C)(C)O1 (stereo partly specified)" outcome_measure=TGI measured="56.4 µM"
compound=N=C(N)N1CCC(N2CCOCC2)CC1 outcome_measure=TGI measured="> 100 µM"
compound=O=C1/C(=C/c2ccccc2)CN(C(=O)c2cccnc2)C/C1=C\c1ccccc1 outcome_measure=TGI measured="1.44 µM"

q: Indicate its recorded TGI; the compound in question is O=C(c1ccco1)c1nc2cc(Cl)ccc2[n+]([O-])c1C(F)(F)F
a: 44 µM

q: Indicate its recorded TGI; the compound in question is c1ccc(Cc2nc(Cc3n[nH]c(Cc4ccccc4)n3)n[nH]2)cc1
a: > 100 µM

q: Indicate its recorded TGI; the compound in question is O=[N+]([O-])c1nccn1CC(O)CN1CC1 (stereo unspecified)
a: > 100 µM

q: Indicate its recorded TGI; the compound in question is CCc1c(C#N)c(S[C@@H](C(N)=O)c2ccccc2)nc(N(C)C)c1C#N
a: > 100 µM

q: Indicate its recorded TGI; the compound in question is CC(=O)OC(C)C1C2=C(C(=O)CC1(C)O)C(=O)c1c(ccc(-c3ccc4c(c3O)C(=O)C3=C(C4=O)C(C(C)OC(C)=O)C(C)(O)CC3=O)c1O)C2=O (stereo unspecified)
a: > 100 µM
